system: Plasmodium berghei; test: Screen against P. berghei liver stage (PbLuc), transformed with Luciferase, at 10uM; format: functional, HepG2; settings: tested at 10 uM
Hit rate of the full screen: of about 69,000 compounds, about 8,600 (12%) showed an effect of 50% or more. Many of the other results were omitted from the sample, so strong results are more common in it than they were.
# if value of INHIBITION reaches 30%, tag satisfied; if it stays below, tag not satisfied

| compound | assigned-class |
| --- | --- |
| CCC(CC)c1cc(CNC(=O)N2CCC(CO)CC2)on1 | satisfied |
| Cc1ccc(N2CCC3(CCCN3Cc3ccn(C)n3)CC2)nn1 | satisfied |
| CN(Cc1ccc(C(=O)O)cc1)C(=O)c1sccc1OC(F)F | satisfied |
| Cc1cc(Br)c(O)c(-c2nc(N3CCOCC3)sc2C)c1 | satisfied |
| CN(CCc1ccncc1)C(=O)c1sccc1OC(F)F | not satisfied |

input: Does INHIBITION meet or surpass 30% for COc1ccc(CN2CCOC3(CCCN(c4cnccn4)C3)C2)cc1 (stereo unspecified) ?
output: satisfied
